molecular target: Glucose-6-phosphate 1-dehydrogenase (Homo sapiens); assay: inhibition of Homo sapiens G6PD, dose series – biochemical, fluorescence, selectivity assay for P. falciparum G6PD inhibitor project, dose response (AID 504792); format: functional
Sequence (P11413 whole entry): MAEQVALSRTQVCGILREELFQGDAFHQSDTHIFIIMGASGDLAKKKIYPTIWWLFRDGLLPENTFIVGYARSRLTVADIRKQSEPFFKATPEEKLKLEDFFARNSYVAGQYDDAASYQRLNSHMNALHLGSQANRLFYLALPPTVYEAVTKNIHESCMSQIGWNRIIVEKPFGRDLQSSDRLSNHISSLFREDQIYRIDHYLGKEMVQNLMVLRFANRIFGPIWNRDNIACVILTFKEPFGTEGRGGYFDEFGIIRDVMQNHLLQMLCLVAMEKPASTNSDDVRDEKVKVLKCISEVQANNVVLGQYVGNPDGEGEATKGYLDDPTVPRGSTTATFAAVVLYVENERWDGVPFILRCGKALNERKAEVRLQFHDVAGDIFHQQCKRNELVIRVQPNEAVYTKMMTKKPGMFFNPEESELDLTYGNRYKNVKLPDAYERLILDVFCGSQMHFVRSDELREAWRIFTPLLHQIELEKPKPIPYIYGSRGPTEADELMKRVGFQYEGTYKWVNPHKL
Calls of active or inactive are those of the source. Rule as the data show it: active = IC50 of 20 µM or less and inactive = more.
// classify into active, inactive

Worked cases, answers included:
[[record]]
chem_smiles = "O=C(Cn1sc2ccccc2c1=O)Nc1ccc(Cl)cc1"
label = "active"

[[record]]
chem_smiles = "Cc1cc(C)c2c(=O)n(CC(=O)N3CCC(N4CCCCC4)CC3)sc2n1"
label = "inactive"

[[record]]
chem_smiles = "COC(=O)c1cc2c(n1S(=O)(=O)c1ccc(C)cc1)C(=O)C(=O)c1[nH]cc(C(=O)OCc3ccccc3)c1-2"
label = "inactive"

[[record]]
chem_smiles = "O=C1C(c2cc(O)c3ccccc3n2)=C(O)c2ccccc21"
label = "inactive"


Moving on to another molecule below.
Q) Status in this test for COc1cc(NCCCn2cnc3c(OCc4ccccc4)ncnc32)cc(OC)c1OC ?
A) inactive

These entries and their values trace back to ChEMBL document CHEMBL1201862.
